test system: Hela cell line; test: MTT test of inhibiting tumor cell activity, Hela; conditions: read-out: Cytotoxic activity (IC50, μM) Hela; Hela cells, MTT, 48 h cultivation
Value Type: IC50 (µM)
Please give a number only; it is taken to be in µM.

Value of IC50 reported for the compound COc1ccc(Cl)cc1NC1c2cc3c(cc2C(c2cc(OC)c(OC)c(OC)c2)C2C(=O)OCC12)OCO3 (stereo not drawn) is 8.07

The value of IC50 measured for the compound CCc1ccc([N+](=O)[O-])cc1NC1c2cc3c(cc2C(c2cc(OC)c(OC)c(OC)c2)C2C(=O)OCC12)OCO3 (stereo not drawn) turned out to be 6.01

The recorded IC50 for COc1cc(C2c3cc4c(cc3C(Nc3ccccc3C#N)C3COC(=O)C23)OCO4)cc(OC)c1OC (stereo not drawn) is 16.9

Entry COc1cc(C2c3cc4c(cc3C(O)C3COC(=O)C23)OCO4)cc(OC)c1O (stereo not drawn) [4′-demethylepipodophyllotoxin, reference compound] ; IC50 = 49

The recorded IC50 for COc1cc(C2c3cc4c(cc3C(Nc3ccccc3Sc3ccccc3N)C3COC(=O)C23)OCO4)cc(OC)c1O (stereo not drawn) is 16.3

Query COc1cc(C2c3cc4c(cc3C(Nc3cccc(S(=O)(=O)N(C)C)c3)C3COC(=O)C23)OCO4)cc(OC)c1O (stereo not drawn) yields IC50 of 1.06

###

For each record, write down the corresponding log10(IC50).
system: Hela cell line; assay: MTT test of inhibiting tumor cell activity, Hela; conditions: read-out: Cytotoxic activity (IC50, μM) Hela; Hela cells, MTT, 48 h cultivation
// units: µM (pre-log); metric: IC50; scale: log10

# log10(IC50) of COc1cc(C2c3cc4c(cc3C(Nc3ccccc3C(F)(F)F)C3COC(=O)C23)OCO4)cc(OC)c1O (stereo not shown) = 0.77

# log10(IC50) of COc1ccccc1NC1c2cc3c(cc2C(c2cc(OC)c(O)c(OC)c2)C2C(=O)OCC12)OCO3 (stereo not shown) = 0.24

// log10(IC50) value for COc1ccc(Cl)cc1NC1c2cc3c(cc2C(c2cc(OC)c(O)c(OC)c2)C2C(=O)OCC12)OCO3 (stereo not shown) : 0.13

Noted for COc1cc(C2c3cc4c(cc3C(Nc3ccccc3C#N)C3COC(=O)C23)OCO4)cc(OC)c1O (stereo not shown) : its log10(IC50) reads 0.28

Please fill in: log10(IC50) reported for COc1cc(C2c3cc4c(cc3C(Nc3ccc(Cc5ccc(N)cc5)cc3)C3COC(=O)C23)OCO4)cc(OC)c1O (stereo not shown) = -0.25

What the record says about COc1ccccc1NC1c2cc3c(cc2C(c2cc(OC)c(OC)c(OC)c2)C2C(=O)OCC12)OCO3 (stereo not shown) : log10(IC50) is 1.13

The recorded log10(IC50) for COc1cc(C2c3cc4c(cc3C(Nc3ccccc3C(F)(F)F)C3COC(=O)C23)OCO4)cc(OC)c1OC (stereo not shown) is 0.39

###

system: A549 cell line; experiment: MTT test of inhibiting tumor cell activity, A549; settings: read-out: Cytotoxic activity (IC50, μM) A549; A549 cells, MTT, 48 h cultivation
Kindly state log10 of IC50 for each of the entries shown.
A value of 2 here means IC50 of 100 in µM, since values are log10.

So, CCc1ccc([N+](=O)[O-])cc1NC1c2cc3c(cc2C(c2cc(OC)c(OC)c(OC)c2)C2C(=O)OCC12)OCO3 (stereo not drawn) ? Its log10 of IC50 was 0.15

Entry COc1ccccc1NC1c2cc3c(cc2C(c2cc(OC)c(O)c(OC)c2)C2C(=O)OCC12)OCO3 (stereo not drawn) ; log10 of IC50 = 1.18

For COc1cc(C2c3cc4c(cc3C(Nc3cc(Cl)c(O)c(Cl)c3)C3COC(=O)C23)OCO4)cc(OC)c1OC (stereo not drawn) the compound record lists log10 of IC50 as 0.98

The measured log10 of IC50 associated with COc1cc(C2c3cc4c(cc3C(Nc3ccccc3C#N)C3COC(=O)C23)OCO4)cc(OC)c1O (stereo not drawn) reads 1.06

Lab note: COc1ccc(NC2c3cc4c(cc3C(c3cc(OC)c(OC)c(OC)c3)C3C(=O)OCC23)OCO4)cc1F (stereo not drawn) gave log10 of IC50 of 0.29

// field: log10 of IC50; key: COc1cc(C2c3cc4c(cc3C(Nc3ccccc3Sc3ccccc3N)C3COC(=O)C23)OCO4)cc(OC)c1OC (stereo not drawn) ; value = 1.37
